Please provide measured optical density for the entries that follow.
# TESTED ON: mouse ACVR2A (mouse, UniProt P27038 20-135, limits assumed); note: test concentration or dose not given here
# Sequence (P27038 20-135 limits assumed): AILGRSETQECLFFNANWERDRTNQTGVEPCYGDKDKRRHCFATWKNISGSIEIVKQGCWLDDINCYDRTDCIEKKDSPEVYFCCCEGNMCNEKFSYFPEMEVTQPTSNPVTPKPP
# PROTOCOL: ELISA
Give bare numbers, in OD.

| BINDER | RESULT UNITS | ASSAY RESULT |
| --- | --- | --- |
| 374_C07 (antibody, V domains shown, VH and VL only) VH: EVQLLESGGGLVQPGGSLRLSCAASGFTFDSYSMNWVRQAPGKGLEWVSNINYNGGYTSYADSVKGRFTISRDNSKNTLYLQMNSLRAEDTAVYYCARSATWHDTHLDYWGQGTLVTVSS VL: DIQMTQSPSSLSASVGDRVTITCRASQSIISYLNWYQQKPGKAPKLLIYAATSRASGVPSRFSGSGSGTDFTLTISSLQPEDFATYYCQQSDELPLTFGGGTKVEIK | OD | 3.7 |

Item under review: 367_G08 (antibody, V domains shown, VH and VL only) VH: EVQLLESGGGLVQPGGSLRLSCAASGFTFDSYGMNWVRQAPGKGLEWVSNINYNGGYKGYADSVKGRFTISRDNSKNTLYLQMNSLRAEDTAVYYCARSATWHDTHLDYWGQGTLVTVSS VL: DIQMTQSPSSLSASVGDRVTITCRASQSILSYLNWYQQKPGKAPKLLIYAATSRASGVPSRFSGSGSGTDFTLTISSLQPEDFATYYCQQSYENPLTFGGGTKVEIK . Reported optical density?
2.78

Where these numbers come from: patent US20210380703A1
